Molecular target: Tyrosine-protein phosphatase non-receptor type 1 (Homo sapiens)
Sequence (P18031 whole entry): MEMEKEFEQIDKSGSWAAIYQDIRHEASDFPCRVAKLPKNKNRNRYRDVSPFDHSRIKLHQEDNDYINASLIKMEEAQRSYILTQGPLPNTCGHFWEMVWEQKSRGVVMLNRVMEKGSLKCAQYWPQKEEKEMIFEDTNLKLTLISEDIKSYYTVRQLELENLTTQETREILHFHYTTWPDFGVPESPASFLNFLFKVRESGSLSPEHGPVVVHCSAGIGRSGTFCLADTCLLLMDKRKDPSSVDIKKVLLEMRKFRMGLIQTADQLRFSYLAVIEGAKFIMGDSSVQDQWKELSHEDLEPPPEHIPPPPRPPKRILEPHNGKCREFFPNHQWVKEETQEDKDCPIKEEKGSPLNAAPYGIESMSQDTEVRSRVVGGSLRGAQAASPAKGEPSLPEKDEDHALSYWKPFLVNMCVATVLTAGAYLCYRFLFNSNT
parameter: IC50 (µM)
Give just the numeric value; µM need not be written.

Reference set (2 entries):
smiles representation: O=C(O)c1noc(-c2ccccc2)c1-c1cccc(-c2cc(Cl)c(O)c(Cl)c2)c1
observed measurement: 127

smiles representation: O=C(O)c1noc(-c2ccccc2)c1-c1cccc(-c2ccc(O)c(Cl)c2)c1
observed measurement: 213

Now, please, on to the next molecule.
// query Give IC50 for the following molecule: O=C(O)c1noc(-c2ccccc2)c1-c1ccccc1
// result 100
